testedTarget: Human immunodeficiency virus type 1 reverse transcriptase (Human immunodeficiency virus 1, UniProt Q72547, Y181C)
methodNotes: Binding affinity to HIV1 reverse transcriptase Y181C mutant at 25 degC
pKd: −log10 of the molar value.
experimentalEndpoint: pKd

# compound, experimentalValue
rows = [
    ("CCC(=O)c1ccc(F)c([C@@H]2C[C@@H]2NC(=O)Nc2ccc(C#N)cn2)c1O", 8.82),
]

====

testedTarget: Human immunodeficiency virus type 1 reverse transcriptase (Human immunodeficiency virus 1, UniProt Q72547, K103N)
methodNotes: Binding affinity to HIV1 reverse transcriptase K103N mutant at 15 degC
experimentalEndpoint: Kd (pM)

# compound, experimentalValue
rows = [
    ("CCC(=O)c1ccc(F)c([C@@H]2C[C@@H]2NC(=O)Nc2ccc(C#N)cn2)c1O", 997),
]

====

testedTarget: Human immunodeficiency virus type 1 reverse transcriptase (Human immunodeficiency virus 1, UniProt Q72547, K103N)
methodNotes: Binding affinity to HIV1 reverse transcriptase K103N mutant at 5 degC
pKd: −log10 of the molar value.
experimentalEndpoint: pKd

# compound, experimentalValue
records = [
    ("CCC(=O)c1ccc(F)c([C@@H]2C[C@@H]2NC(=O)Nc2ccc(C#N)cn2)c1O", 9.22),
]

====

testedTarget: Human immunodeficiency virus type 1 reverse transcriptase (Human immunodeficiency virus 1, UniProt Q72547, Y181C)
methodNotes: Binding affinity to HIV1 reverse transcriptase Y181C mutant at 15 degC

# compound, outputUnit, Kd
data = [
    ("CCC(=O)c1ccc(F)c([C@@H]2C[C@@H]2NC(=O)Nc2ccc(C#N)cn2)c1O", "nM", 0.79),
]

Data provenance is ChEMBL document CHEMBL1137525.
